- Tgt: NAD(P)H dehydrogenase [quinone] 1 (Homo sapiens)
- Measurement Notes: Substrate activity at recombinant human C-terminal His-tagged NQO1 (1 to 274 residues) expressed in Escherichia coli assessed as metabolic rate by measuring NADPH oxidation per micromol protein at 10 mmol/L measured at 5 secs interval for 1 min by UV-Visible Spectrophotometric method
- Format: ADME
Observation Type: Drug metabolism

Reference set (2 entries):
- Compound: "O=C1C(=O)c2ccccc2C2=C1C(c1cc(O)ccc1Br)NC(=S)N2 (stereo unspecified)"
  Drug metabolism: "1083 micromol/min/micromol protein"
- Compound: "O=C1C(=O)c2ccccc2C2=C1C(c1cccc(O)c1Cl)NC(=S)N2 (stereo unspecified)"
  Drug metabolism: "1273 micromol/min/micromol protein"

Please report the recorded Drug metabolism for O=C1C(=O)c2cccc(Br)c2C2=C1C(c1cccc(O)c1)NC(=S)N2 (stereo unspecified) .
2012 micromol/min/micromol protein

Please report the recorded Drug metabolism for O=C1C(=O)c2ccccc2C2=C1C(c1cc(O)ccc1F)NC(=S)N2 (stereo unspecified) .
528 micromol/min/micromol protein

Please report the recorded Drug metabolism for COc1ccc2c(c1)C1=C(C(=O)C2=O)C(c2cc(C)cc(O)c2)NC(=S)N1 (stereo unspecified) .
1427 micromol/min/micromol protein

Please report the recorded Drug metabolism for O=C1C(=O)c2ccc(Cl)cc2C2=C1C(c1cccc(O)c1)NC(=S)N2 (stereo unspecified) .
2398 micromol/min/micromol protein

Please report the recorded Drug metabolism for Cc1cc(O)cc(C2NC(=S)NC3=C2C(=O)C(=O)c2ccccc23)c1 (stereo unspecified) .
539 micromol/min/micromol protein

Please report the recorded Drug metabolism for O=C1C(=O)c2ccccc2C2=C1C(c1ccc(Cl)c(O)c1)NC(=S)N2 (stereo unspecified) .
734 micromol/min/micromol protein

* * *

Each record here notes measured IC50.
- Tested on: HepG2
- Measurement Notes: Antiproliferative activity against human HepG2 cells measured after 48 hrs by MTT assay
- Applied Conditions: HepG2, 48 h
Give the value, in units of µM, as a plain number.

- Compound: "O=C1C(=O)c2ccccc2C2=C1C(c1cccc(O)c1Cl)NC(=S)N2 (stereo unspecified)"
  Val: 1.4
- Compound: "O=C1C(=O)c2cccc(Br)c2C2=C1C(c1cccc(O)c1)NC(=S)N2 (stereo unspecified)"
  Val: 2.89
- Compound: "O=C1C(=O)c2cc(F)ccc2C2=C1C(c1cccc(O)c1)NC(=S)N2 (stereo unspecified)"
  Val: 1.34
- Compound: "COc1ccc2c(c1)C1=C(C(=O)C2=O)C(c2cccc(O)c2)NC(=S)N1 (stereo unspecified)"
  Val: 1.57
- Compound: "O=C1C(=O)c2ccccc2C2=C1C(c1cc(O)cc(Cl)c1)NC(=S)N2 (stereo unspecified)"
  Val: 1.69
- Compound: "O=C1C(=O)c2ccccc2C2=C1C(c1cc(O)cc(Br)c1)NC(=S)N2 (stereo unspecified)"
  Val: 3.2

Item: O=C1C(=O)c2ccc(Cl)cc2C2=C1C(c1cccc(O)c1)NC(=S)N2 (stereo unspecified) Test system: HepG2 Read-out: IC50 Value: ?
1.38

Item: O=C1C(=O)c2ccccc2C2=C1C(c1ccc(Cl)c(O)c1)NC(=S)N2 (stereo unspecified) Test system: HepG2 Read-out: IC50 Value: ?
1.58

Item: `CC1(C)CCC2=C(O1)c1ccccc1C(=O)C2=O` Test system: HepG2 Read-out: IC50 Value: ?
2.83

Item: COc1ccc2c(c1)C(=O)C(=O)C1=C2NC(=S)NC1c1cccc(O)c1 (stereo unspecified) Test system: HepG2 Read-out: IC50 Value: ?
1.6

Item: COc1cc2c(cc1OC)C1=C(C(=O)C2=O)C(c2cccc(O)c2)NC(=S)N1 (stereo unspecified) Test system: HepG2 Read-out: IC50 Value: ?
1.53

* * *

- Tested on: HepG2
- Measurement Notes: Antiproliferative activity against human HepG2 cells measured after 48 hrs by MTT assay
- Applied Conditions: HepG2, 48 h
Observation Type: pIC50
Give only the number. pIC50 is defined as minus log10 of concentration in molar units.

Reference set (2 entries):
- Compound: "O=C1C(=O)c2ccccc2C2=C1C(c1cccc(O)c1)NC(=S)N2 (stereo not drawn)"
  pIC50: 5.67
- Compound: "O=C1C(=O)c2ccccc2C2=C1C(c1cc(O)ccc1Br)NC(=S)N2 (stereo not drawn)"
  pIC50: 5.88

--- query ---
Please report the recorded pIC50 for Cc1cc(O)cc(C2NC(=S)NC3=C2C(=O)C(=O)c2ccccc23)c1 (stereo not drawn) .
5.87

* * *

- Measurement Notes: in vitro
- Applied Conditions: human, L02 cells and A549 cells
Each record here notes measured selectivity ratio.
Could you respond with only the numeric value?

Reference set (8 entries):
- Compound: "COc1ccc2c(c1)C1=C(C(=O)C2=O)C(c2cccc(O)c2)NC(=S)N1 (centres undefined)"
  Val: 5.83
- Compound: "COc1ccc2c(c1)C1=C(C(=O)C2=O)C(c2cc(C)cc(O)c2)NC(=S)N1 (centres undefined)"
  Val: 5.81
- Compound: "COc1cc2c(cc1OC)C1=C(C(=O)C2=O)C(c2cccc(O)c2)NC(=S)N1 (centres undefined)"
  Val: 0.97
- Compound: "O=C1C(=O)c2ccccc2C2=C1C(c1cc(O)cc(Cl)c1)NC(=S)N2 (centres undefined)"
  Val: 4.77
- Compound: "O=C1C(=O)c2ccccc2C2=C1C(c1cc(O)ccc1F)NC(=S)N2 (centres undefined)"
  Val: 1.59
- Compound: "O=C1C(=O)c2ccccc2C2=C1C(c1ccc(Cl)c(O)c1)NC(=S)N2 (centres undefined)"
  Val: 2.47
- Compound: "O=C1C(=O)c2cc(F)ccc2C2=C1C(c1cccc(O)c1)NC(=S)N2 (centres undefined)"
  Val: 1.71
- Compound: "O=C1C(=O)c2ccccc2C2=C1C(c1cc(O)ccc1Br)NC(=S)N2 (centres undefined)"
  Val: 3.15

--- query ---
Please report the recorded selectivity ratio for O=C1C(=O)c2ccccc2C2=C1C(c1cccc(O)c1)NC(=S)N2 (centres undefined) .
7.78

* * *

- Tgt: NAD(P)H dehydrogenase [quinone] 1 (Homo sapiens, UniProt P15559)
- Measurement Notes: Substrate activity at recombinant human C-terminal His-tagged NQO1 (1 to 274 residues) expressed in Escherichia coli assessed as metabolic rate by measuring NADPH oxidation per micromol protein at 10 mmol/L measured at 5 secs interval for 1 min by UV-Visible Spectrophotometric method
- Assay type: ADME
Each record here notes measured Drug metabolism.

Reference set (3 entries):
- Compound: "COc1ccc2c(c1)C1=C(C(=O)C2=O)C(c2cccc(O)c2)NC(=S)N1 (stereo not drawn)"
  Tgt: "NAD(P)H dehydrogenase [quinone] 1 (Homo sapiens, UniProt P15559)"
  Drug metabolism: "997 micromol/min/micromol protein"
- Compound: "COc1cc2c(cc1OC)C1=C(C(=O)C2=O)C(c2cccc(O)c2)NC(=S)N1 (stereo not drawn)"
  Tgt: "NAD(P)H dehydrogenase [quinone] 1 (Homo sapiens, UniProt P15559)"
  Drug metabolism: "614 micromol/min/micromol protein"
- Compound: "O=C1C(=O)c2ccccc2C2=C1C(c1cc(O)cc(Cl)c1)NC(=S)N2 (stereo not drawn)"
  Tgt: "NAD(P)H dehydrogenase [quinone] 1 (Homo sapiens, UniProt P15559)"
  Drug metabolism: "941 micromol/min/micromol protein"

Please report the recorded Drug metabolism for COc1ccc2c(c1)C(=O)C(=O)C1=C2NC(=S)NC1c1cccc(O)c1 (stereo not drawn) .
1530 micromol/min/micromol protein

Please report the recorded Drug metabolism for O=C1C(=O)c2ccccc2C2=C1C(c1cccc(O)c1)NC(=S)N2 (stereo not drawn) .
1128 micromol/min/micromol protein

Please report the recorded Drug metabolism for O=C1C(=O)c2ccccc2C2=C1C(c1cc(O)cc(Br)c1)NC(=S)N2 (stereo not drawn) .
852 micromol/min/micromol protein

Please report the recorded Drug metabolism for O=C1C(=O)c2cc(F)ccc2C2=C1C(c1cccc(O)c1)NC(=S)N2 (stereo not drawn) .
1513 micromol/min/micromol protein
